Tested on: ATP;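 further: ATP exposure 15 min at 22 °C before imaging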
procedure.summary: switch fluorescence ratio, 500 uM ATP over buffer (Cy3 cluster intensity, sum of 5 cycles each) (fold (ratio)); higher = stronger signal-on switching upon ATP binding; sequences stand for … in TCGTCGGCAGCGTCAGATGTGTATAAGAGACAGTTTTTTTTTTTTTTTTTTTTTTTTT…TC
measurement.parameters: aptamer strand: ATP DNA aptamer (quencher-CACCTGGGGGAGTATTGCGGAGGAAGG + anchor), 100 nM annealed; ATP concentration: 500 uM
reported.property: switch fluorescence ratio
Numbers only.

> print(dat)
   macromolecule.sequence          reported.property  endpoint.result
1              GTGGGGGGAG  switch fluorescence ratio                1
2              CTAAGTTCTT  switch fluorescence ratio            0.987
3              GCTTGGGATT  switch fluorescence ratio            0.977
4              GAATCGGGGG  switch fluorescence ratio            0.979

# batch: return switch fluorescence ratio for each of the 4 sequences below
1. TGCTACAGGA
2. TAATCAACGA
3. TTAAGTCAGT
4. AAGTTTTTGG

[out]
1. 1.02
2. 1
3. 0.972
4. 1.01

# batch: return switch fluorescence ratio for each of the 7 sequences below
1. TCACAGTTTT
2. AAACCCAAAG
3. CCTAATGCCG
4. CGCCATGGAA
5. CGTAAAGTAG
6. TACAGTTGTA
7. TGTAGAGGGT

[out]
[0.983, 1.02, 0.996, 1, 1.01, 0.971, 0.976]

# batch: return switch fluorescence ratio for each of the 3 sequences below
1. GGGACCTTTT
2. ACGTGCGGAG
3. TTTGGTTTAT

[out]
[1, 1.01, 0.982]

# batch: return switch fluorescence ratio for each of the 7 sequences below
1. AGGGGGGAAG
2. GTAGGCGGTG
3. CGGGTTTGCG
4. GACGGATGTG
5. AGTTTGGCAT
6. GGGCATCGGG
7. TAATGTGTGT

[out]
0.989
0.984
0.992
0.986
0.996
0.991
1.02

---

Tested on: ATP;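 further: ATP exposure 15 min at 22 °C before imaging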
procedure.summary: switch fluorescence ratio, 500 uM ATP over buffer (Cy3 cluster intensity, sum of 5 cycles each) (fold (ratio)); higher = stronger signal-on switching upon ATP binding; sequences stand for … in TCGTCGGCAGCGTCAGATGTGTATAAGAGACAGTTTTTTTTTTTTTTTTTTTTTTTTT…TC
measurement.parameters: aptamer strand: ATP DNA aptamer (quencher-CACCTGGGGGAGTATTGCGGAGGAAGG + anchor), 100 nM annealed; ATP concentration: 500 uM
reported.property: switch fluorescence ratio
Answers are plain numbers.

In the examples that follow, each entry is paired with its recorded switch fluorescence ratio.
> print(dat)
    macromolecule.sequence          reported.property  endpoint.result
 1              GAAGCAGCAG  switch fluorescence ratio             1.19
 2              CTGGGTATTT  switch fluorescence ratio            0.999
 3              GCTTCTGGTT  switch fluorescence ratio            0.988
 4              TTTGGAGTGG  switch fluorescence ratio            0.998
 5              AGGTGCTTGA  switch fluorescence ratio            0.975
 6              GCTTTGGGAC  switch fluorescence ratio             1.25
 7              AATGGTTCGC  switch fluorescence ratio             1.01
 8              GGGGTGACGT  switch fluorescence ratio             1.02
 9              ATCCGGGGTT  switch fluorescence ratio             1.06
10              GGTCCGGGGC  switch fluorescence ratio             1.01

# batch: return switch fluorescence ratio for each of the 6 sequences below
1. GAAATATTTT
2. TACTAAGTGG
3. AGTGCTTTTA
4. TTGCACAAAA
5. GGTTGGTACT
6. TTTAGGGTGC

[out]
1. 0.996
2. 1.05
3. 0.993
4. 1.03
5. 1
6. 1.03

# batch: return switch fluorescence ratio for each of the 3 sequences below
1. GAGACTTGGG
2. TCGGGGCTCC
3. AGGCTGCAG

[out]
1. 1.03
2. 2.87
3. 0.961
